assay: AUC (0 to 24 hrs) in cynomolgus monkey at 3 mg/kg, po by HPLC-MS/MS analysis; type: ADME, organism-based, Macaca fascicularis; design: time < 24 hr, dose 3 mg/kg, route oral; details: plasma
quantityKind: AUC(0-t) at 24 h (ng·h/mL)
Answer with a number only, understood to be in ng·h/mL.

# molecule, AUC(0-t) at 24 h (ng·h/mL)
records = [
    ("CC(C)[C@H](C[C@H](O)[C@@H](N)CN1CC(=O)N(c2ccccc2Cl)CC1(C)C)C(=O)NCC(C)(C)C.O=C(O)/C=C/C(=O)O", 460),
    ("CC[C@H](C[C@H](O)[C@@H](N)CN1CC(=O)N(c2ccccc2Cl)CC1(C)C)C(=O)NC1C2CC3CC1CC(C(N)=O)(C3)C2.O=C(O)/C=C/C(=O)O (stereo partly drawn)", 90),
]

# evaluate next
The value of AUC(0-t) at 24 h measured for the molecule `CC(C)[C@H](C[C@H](O)[C@@H](N)CN1CC(=O)N(c2ccccc2Cl)CC1(C)C)C(=O)N[C@H]1CC[C@H](O)CC1.O=C(O)/C=C/C(=O)O` turned out to be 75

* * *

test: Cmax in cynomolgus monkey at 3 mg/kg, po by HPLC-MS/MS analysis; type: ADME, organism-based, Macaca fascicularis; set-up: dose 3 mg/kg, route oral; settings: in vivo
quantityKind: Cmax (µg/mL)
Answer with a number only, understood to be in µg/mL.

# compound, Cmax (µg/mL)
rows = [
    ("CC(C)[C@H](C[C@H](O)[C@@H](N)CN1CC(=O)N(c2ccccc2Cl)CC1(C)C)C(=O)NCC(C)(C)C.O=C(O)/C=C/C(=O)O", 0.111),
]

The value of Cmax measured for the compound CC[C@H](C[C@H](O)[C@@H](N)CN1CC(=O)N(c2ccccc2Cl)CC1(C)C)C(=O)NC1C2CC3CC1CC(C(N)=O)(C3)C2.O=C(O)/C=C/C(=O)O (stereo partly drawn) turned out to be 0.019

The value of Cmax measured for the compound `CC(C)[C@H](C[C@H](O)[C@@H](N)CN1CC(=O)N(c2ccccc2Cl)CC1(C)C)C(=O)N[C@H]1CC[C@H](O)CC1.O=C(O)/C=C/C(=O)O` turned out to be 0.019

* * *

target: Renin (Macaca fascicularis, UniProt Q6DLS0); assay: Inhibition of renin in cynomolgus monkey plasma after 1 hr by RIA
Sequence (Q6DLS0 whole entry): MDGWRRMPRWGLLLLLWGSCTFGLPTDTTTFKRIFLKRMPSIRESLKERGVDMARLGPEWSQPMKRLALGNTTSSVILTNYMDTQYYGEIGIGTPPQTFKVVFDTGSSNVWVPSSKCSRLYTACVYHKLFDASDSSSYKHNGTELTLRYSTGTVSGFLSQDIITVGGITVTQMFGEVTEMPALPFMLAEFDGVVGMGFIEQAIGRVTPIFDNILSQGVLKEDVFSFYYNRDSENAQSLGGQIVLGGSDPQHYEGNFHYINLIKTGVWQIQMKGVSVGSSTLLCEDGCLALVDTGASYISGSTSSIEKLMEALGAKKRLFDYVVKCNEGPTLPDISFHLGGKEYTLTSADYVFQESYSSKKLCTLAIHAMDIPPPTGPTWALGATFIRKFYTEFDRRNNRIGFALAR
Output criterion met for records whose IC50 is lower than 3 nM, criterion not met for records at or above 3 nM.

Worked cases, answers included:
# compound, answerLabel
rows = [
    ("COC(=O)C(C)(C)CNC(=O)[C@@H](C[C@H](O)[C@@H](N)CN1CC(=O)N(c2ccccc2Cl)CC1(C)C)C(C)C.O=C(O)/C=C/C(=O)O", "criterion not met"),
    ("CC[C@H](C[C@H](O)[C@@H](N)CN1CC(=O)N(c2ccccc2Cl)CC1(C)C)C(=O)Nc1ccc(F)cc1.O=C(O)/C=C/C(=O)O", "criterion not met"),
    ("CC(C)NC(=O)[C@@H](C[C@H](O)[C@@H](N)CN1CC(=O)N(c2ccccc2Cl)CC1(C)C)C(C)C.O=C(O)/C=C/C(=O)O", "criterion not met"),
    ("CC(C)[C@H](C[C@H](O)[C@@H](N)CN1CC(=O)N(c2ccccc2Cl)CC1(C)C)C(=O)NCC(C)(C)CO.O=C(O)/C=C/C(=O)O", "criterion not met"),
    ("CC[C@H](C[C@H](O)[C@@H](N)CN1CC(=O)N(c2ccccc2Cl)CC1(C)C)C(=O)NCC1(CO)CCCCC1.O=C(O)/C=C/C(=O)O", "criterion not met"),
    ("CC[C@H](C[C@H](O)[C@@H](N)CN1CC(=O)N(c2ccccc2Cl)CC1(C)C)C(=O)NCC(C)(C)CO.O=C(O)/C=C/C(=O)O", "criterion not met"),
    ("CC(C)[C@H](C[C@H](O)[C@@H](N)CN1CC(=O)N(c2ccccc2Cl)CC1(C)C)C(=O)N[C@H]1C2CC3CC1C[C@](O)(C3)C2.O=C(O)/C=C/C(=O)O", "criterion met"),
    ("Cc1ccc(F)cc1N1CC(C)(C)N(C[C@H](N)[C@@H](O)C[C@H](C(=O)Nc2cccnc2)C(C)C)CC1=O.O=C(O)/C=C/C(=O)O", "criterion not met"),
    ("CC(C)[C@H](C[C@H](O)[C@@H](N)CN1CC(=O)N(c2ccccc2Cl)CC1(C)C)C(=O)Nc1ccncc1.O=C(O)/C=C/C(=O)O", "criterion not met"),
    ("CC[C@H](C[C@H](O)[C@@H](N)CN1CC(=O)N(c2ccccc2Cl)CC1(C)C)C(=O)NC1C2CC3CC1CC(C(N)=O)(C3)C2.O=C(O)/C=C/C(=O)O (stereo not given in full)", "criterion met"),
]

Threshold test, IC50 < 3 nM: `CC(C)[C@H](C[C@H](O)[C@@H](N)CN1CC(=O)N(c2ccccc2Cl)CC1(C)C)C(=O)NC1CCOCC1.O=C(O)/C=C/C(=O)O`
criterion not met

Threshold test, IC50 < 3 nM: `CC[C@H](C[C@H](O)[C@@H](N)CN1CC(=O)N(c2ccccc2Cl)CC1(C)C)C(=O)Nc1ccc(F)cn1.O=C(O)/C=C/C(=O)O`
criterion met

Threshold test, IC50 < 3 nM: `CC(C)CNC(=O)[C@@H](C[C@H](O)[C@@H](N)CN1CC(=O)N(c2ccccc2Cl)CC1(C)C)C(C)C.O=C(O)/C=C/C(=O)O`
criterion not met

Threshold test, IC50 < 3 nM: `CC[C@H](C[C@H](O)[C@@H](N)CN1CC(=O)N(c2ccccc2Cl)CC1(C)C)C(=O)Nc1ccc(C)cc1.O=C(O)/C=C/C(=O)O`
criterion not met
